src = paper PMC3349722

# ASSAYED_TARGET: ERβ (Homo sapiens)
# METHOD: Yeast two-hybrid system-based assay (ERβ LBD/SRC1, α-galactosidase), agonist and antagonist mode
# Type: cell-based
# MEASUREMENT_PARAMETERS: read-out: IC50 on ERβ (antagonistic activity)
Measured pIC50 values are reported for all entries that follow.
// returns pIC50 (minus log10 of molar concentration), number only

O=C(O)Cc1ccccc1Nc1c(Cl)cccc1Cl [Diclofenac]; 5.63

Query: Lab note: need pIC50 with ERβ (Homo sapiens) for entry CC(=O)N1CCN(c2ccc(OCC3COC(Cn4ccnc4)(c4ccc(Cl)cc4Cl)O3)cc2)CC1 (centres unmarked) [Ketoconazole] , please look it up.
Reply: 6.10

---

# ASSAYED_TARGET: ERβ (Homo sapiens, UniProt Q92731)
# Sequence (Q92731 248-510): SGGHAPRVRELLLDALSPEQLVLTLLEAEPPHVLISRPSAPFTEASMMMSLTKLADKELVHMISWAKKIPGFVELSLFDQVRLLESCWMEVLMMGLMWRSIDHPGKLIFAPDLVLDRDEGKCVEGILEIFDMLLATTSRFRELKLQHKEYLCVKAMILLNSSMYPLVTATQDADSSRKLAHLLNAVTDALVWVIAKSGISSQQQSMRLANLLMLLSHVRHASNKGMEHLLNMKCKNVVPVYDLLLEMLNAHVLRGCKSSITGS
# METHOD: Yeast two-hybrid system-based assay (ERβ LBD/SRC1, α-galactosidase), agonist and antagonist mode
# Assay type: cell-based
# MEASUREMENT_PARAMETERS: 10 μM, antagonist assay with 1 nM E2
Listing: Inhibitive Ratio% (10 μM), ERβ of selected molecules
Your answer is read as %, so omit the unit and give the number.

N#Cc1ccc(C(c2ccc(C#N)cc2)n2cncn2)cc1; 0

Query: Item: COc1ccc2[nH]cc(CCNC(C)=O)c2c1 Test system: ERβ (Homo sapiens, UniProt Q92731) Read-out: Inhibitive Ratio% (10 μM), ERβ Value: ?
Reply: 0

Query: API: value(readout= Inhibitive Ratio% (10 μM), ERβ, system= ERβ (Homo sapiens, UniProt Q92731), query= N[C@@H]1C[C@H]1c1ccccc1 (racemic) )
Reply: 0

Query: Form field: Inhibitive Ratio% (10 μM), ERβ recorded for CC(=O)OCC(CCn1cnc2cnc(N)nc21)COC(C)=O with ERβ (Homo sapiens, UniProt Q92731) (enter value)
Reply: 0

---

# ASSAYED_TARGET: ERβ (Homo sapiens, UniProt Q92731)
# METHOD: Yeast two-hybrid system-based assay (ERβ LBD/SRC1, α-galactosidase), agonist and antagonist mode
# Type: cell-based
# MEASUREMENT_PARAMETERS: 10 μM; DMSO = 1
Where a name gives a salt, the structure may show the parent alone.
Each item that follows carries a reported Agonistic activities (10 μM), ERβ.
Give the value as a plain number.

NS(=O)(=O)Cc1noc2ccccc12 [Zonisamide]; 1.029
Nc1nc2c(ncn2CCC(CO)CO)c(=O)[nH]1; 0.947
CC#C[C@]1(O)CC[C@H]2[C@@H]3CCC4=CC(=O)CCC4=C3[C@@H](c3ccc(N(C)C)cc3)C[C@@]21C; 1.080
C=CCN1CC[C@]23c4c5ccc(O)c4O[C@H]2C(=O)CC[C@@]3(O)[C@H]1C5 [Naloxone HCl]; 1.051
O=C(O)Cc1ccccc1Nc1c(Cl)cccc1Cl; 0.846

Query: # Agonistic activities (10 μM), ERβ lookup, item N#Cc1ccc(C(c2ccc(C#N)cc2)n2cncn2)cc1
Reply: 0.846

Query: Which value of Agonistic activities (10 μM), ERβ has been reported for COc1ccc2[nH]cc(CCNC(C)=O)c2c1 in the records?
Reply: 0.914

---

# ASSAYED_TARGET: ERα (Homo sapiens)
# METHOD: Yeast two-hybrid system-based assay (ERα LBD/SRC1, α-galactosidase), agonist and antagonist mode
# Assay type: cell-based
# MEASUREMENT_PARAMETERS: agonist testing; read-out: EC50 on ERα (agonistic activity)
READOUT_LABEL: pEC50
The value called pEC50 is obtained by taking minus log10 of the concentration in mol/L.

Query: Bench note: what pEC50 did CCC(C)n1ncn(-c2ccc(N3CCN(c4ccc(OCC5COC(Cn6cncn6)(c6ccc(Cl)cc6Cl)O5)cc4)CC3)cc2)c1=O (stereo not shown) show?
Reply: 6.70

---

# ASSAYED_TARGET: ERα (Homo sapiens, UniProt P03372)
# Sequence (P03372 301-553): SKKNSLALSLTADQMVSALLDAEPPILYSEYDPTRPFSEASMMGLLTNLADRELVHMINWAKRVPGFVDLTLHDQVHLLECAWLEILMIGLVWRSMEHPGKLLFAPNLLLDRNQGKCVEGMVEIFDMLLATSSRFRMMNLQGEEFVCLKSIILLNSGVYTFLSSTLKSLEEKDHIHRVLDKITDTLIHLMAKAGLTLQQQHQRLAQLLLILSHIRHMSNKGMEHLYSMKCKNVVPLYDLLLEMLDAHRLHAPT
# METHOD: Yeast two-hybrid system-based assay (ERα LBD/SRC1, α-galactosidase), agonist and antagonist mode
# Format: cell-based
# MEASUREMENT_PARAMETERS: 10 μM; DMSO = 1
The entries below are paired with their reported Agonistic activities (10 μM), ERα.
Format: numeric value only, no unit, no commentary.

CCC(C)n1ncn(-c2ccc(N3CCN(c4ccc(OCC5COC(Cn6cncn6)(c6ccc(Cl)cc6Cl)O5)cc4)CC3)cc2)c1=O (stereo not shown); 4.132

Query: Given the entry CN(C)C(=O)C(CCN1CCC(O)(c2ccc(Cl)cc2)CC1)(c1ccccc1)c1ccccc1 [Loperamide] , report its measured Agonistic activities (10 μM), ERα.
Reply: 0.934

Query: Agonistic activities (10 μM), ERα lookup needed for CS(=O)(=O)CCNCc1ccc(-c2ccc3ncnc(Nc4ccc(OCc5cccc(F)c5)c(Cl)c4)c3c2)o1 , thanks.
Reply: 0.995

Query: What value of measured Agonistic activities (10 μM), ERα is listed for COC(=O)C1=C(C)NC(C)=C(C(=O)OCCN(C)Cc2ccccc2)C1c1cccc([N+](=O)[O-])c1 (stereo not shown) ?
Reply: 0.962

Query: Name the recorded Agonistic activities (10 μM), ERα for CC[C@@H]1C(=O)OC[C@@H]1Cc1cncn1C.Cl [Pilocarpine HCl] .
Reply: 1.008

Query: I'd like to know its Agonistic activities (10 μM), ERα. The compound in question is CN/C(=N/CCSCc1nc[nH]c1C)NC#N
Reply: 1.018

Query: Any idea what Agonistic activities (10 μM), ERα was measured for CCC1(c2ccc(N)cc2)CCC(=O)NC1=O (racemic) [Dl-aminoglutethimide] ?
Reply: 0.956

Query: Requested read-out: Agonistic activities (10 μM), ERα. Entry: CC#C[C@]1(O)CC[C@H]2[C@@H]3CCC4=CC(=O)CCC4=C3[C@@H](c3ccc(N(C)C)cc3)C[C@@]21C
Reply: 1.463

Query: What does the record list as Agonistic activities (10 μM), ERα for O=c1[nH]c2ccccc2n1C1CCN(CCCC(c2ccc(F)cc2)c2ccc(F)cc2)CC1 [Pimozide] ?
Reply: 0.955

Query: Name the recorded Agonistic activities (10 μM), ERα for N[C@@H]1C[C@H]1c1ccccc1 (racemic) .
Reply: 0.988

---

# ASSAYED_TARGET: ERα (Homo sapiens, UniProt P03372)
# METHOD: Yeast two-hybrid system-based assay (ERα LBD/SRC1, α-galactosidase), agonist and antagonist mode
# Format: cell-based
# MEASUREMENT_PARAMETERS: REC50 on ERα (concentration showing 50% of the maximum agonistic activity of E2), agonist testing, relative to E2
READOUT_LABEL: pEC50
pEC50 here: minus log base 10 of the concentration, concentration in moles per litre.

Query: Which measured pEC50 value corresponds to CCC(C)n1ncn(-c2ccc(N3CCN(c4ccc(OCC5COC(Cn6cncn6)(c6ccc(Cl)cc6Cl)O5)cc4)CC3)cc2)c1=O (stereo not shown) ?
Reply: 6.49

---

# ASSAYED_TARGET: human recombinant DPP-IV (Homo sapiens)
# Sequence (P27487 whole entry): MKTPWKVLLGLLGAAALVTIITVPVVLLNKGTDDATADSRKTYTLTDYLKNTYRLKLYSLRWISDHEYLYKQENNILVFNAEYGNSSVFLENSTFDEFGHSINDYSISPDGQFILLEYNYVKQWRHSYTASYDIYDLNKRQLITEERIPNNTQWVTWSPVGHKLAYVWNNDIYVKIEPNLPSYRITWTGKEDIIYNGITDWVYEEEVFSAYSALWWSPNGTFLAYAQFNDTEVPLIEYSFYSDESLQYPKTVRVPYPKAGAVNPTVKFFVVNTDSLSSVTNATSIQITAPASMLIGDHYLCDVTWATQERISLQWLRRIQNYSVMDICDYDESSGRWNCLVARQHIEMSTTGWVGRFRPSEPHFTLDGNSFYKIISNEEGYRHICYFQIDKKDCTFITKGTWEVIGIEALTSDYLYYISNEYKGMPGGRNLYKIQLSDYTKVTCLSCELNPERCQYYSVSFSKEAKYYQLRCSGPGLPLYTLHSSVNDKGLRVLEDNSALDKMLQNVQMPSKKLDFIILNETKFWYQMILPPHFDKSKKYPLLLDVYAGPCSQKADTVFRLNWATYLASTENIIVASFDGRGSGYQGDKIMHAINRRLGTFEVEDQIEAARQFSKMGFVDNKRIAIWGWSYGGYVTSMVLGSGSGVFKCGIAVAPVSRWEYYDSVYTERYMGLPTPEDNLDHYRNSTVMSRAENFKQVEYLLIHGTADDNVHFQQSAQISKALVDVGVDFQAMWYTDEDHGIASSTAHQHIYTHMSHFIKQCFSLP
# METHOD: Dipeptidyl peptidase-IV inhibition assay (DPP-IV Drug Discovery Kit, fluorimetric)
# MEASUREMENT_PARAMETERS: three independent determinations
# Method: The inhibitory effects of compounds on human recombinant DPP-IV was determined using a DPP-IV Drug Discovery Kit (Biomol, USA) according to the manufacturer's instructions. The activity of DPP-IV was detected in a Synergy™ 2 Multi-Mode Microplate Reader (BioTek) at an excitation wavelength of 380 nm and an emission wavelength of 460 nm. […] IC50 values were determined using the GraphPad Prism 4 software with three independent determinations. Table S4. […] increases its fluorescence intensity at 460 nm. […]
READOUT_LABEL: pIC50
Here pIC50 is given on a logarithmic scale as minus log10 of the concentration in mol/L.

Query: Please look up its pIC50: CC(C)(O)c1ccccc1CC[C@@H](SCC1(CC(=O)O)CC1)c1cccc(/C=C/c2ccc3ccc(Cl)cc3n2)c1
Reply: 5.01

---

# ASSAYED_TARGET: ERβ (Homo sapiens, UniProt Q92731)
# METHOD: Yeast two-hybrid system-based assay (ERβ LBD/SRC1, α-galactosidase), agonist and antagonist mode
# Assay type: cell-based
# MEASUREMENT_PARAMETERS: 10 μM, antagonist assay with 1 nM E2
Where a name gives a salt, the structure may show the parent alone.
Recorded measurements of Inhibitive Ratio% (10 μM), ERβ, one per entry
Respond numerically; units are % and should not be typed.

CN(C)C(=O)C(CCN1CCC(O)(c2ccc(Cl)cc2)CC1)(c1ccccc1)c1ccccc1 [Loperamide]; 0
CN(C)CCCN1c2ccccc2Sc2ccc(Cl)cc21 [Chlorpromazine HCl]; 3.11
CCC(C)n1ncn(-c2ccc(N3CCN(c4ccc(OCC5COC(Cn6cncn6)(c6ccc(Cl)cc6Cl)O5)cc4)CC3)cc2)c1=O (stereo not shown); 51.99
CC(C)C(=O)Nc1ccc([N+](=O)[O-])c(C(F)(F)F)c1 [Flutamide]; 2.83
CC#C[C@]1(O)CC[C@H]2[C@@H]3CCC4=CC(=O)CCC4=C3[C@@H](c3ccc(N(C)C)cc3)C[C@@]21C; 27.16
C=CCN1CC[C@]23c4c5ccc(O)c4O[C@H]2C(=O)CC[C@@]3(O)[C@H]1C5 [Naloxone HCl]; 0

Query: Query Inhibitive Ratio% (10 μM), ERβ on ERβ (Homo sapiens, UniProt Q92731) for Nc1nc2c(ncn2CCC(CO)CO)c(=O)[nH]1
Reply: 0
